# Tested on: PC3 cells
# assay: Cell Viability Assay (ATPlite 1step), PC3
# Assay type: cell-based
# conditionParameters: Homo sapiens, PC-3; PC3, 20 uM compound, 72 hours; read-out: Cell Viability % inhibition PC3 (20 uM Cpd)
parameterMeasured: percent inhibition of cell viability at 20 µM (%)
Kindly provide the numeric value in % only, without the unit symbol.

Reported percent inhibition of cell viability at 20 µM (PC3 cells) for entry `Cc1ncc(C(=O)Nc2ccc(-c3cc(NC4CC4)cc(N4CCN(C)CC4)c3)cn2)cn1` is 65.7

Reported percent inhibition of cell viability at 20 µM (PC3 cells) for entry `Cc1ncc(C(=O)Nc2ncc(-c3cc(Cl)cc(N4CCNCC4)c3)cc2F)cn1` is 34.8

Reported percent inhibition of cell viability at 20 µM (PC3 cells) for entry `COc1ccc(-c2ccc(NC(=O)c3cncnc3)nc2)cc1Cl` is 11.5

Now for another entry.
Reported percent inhibition of cell viability at 20 µM (PC3 cells) for entry `Cc1ncc(C(=O)Nc2ccc(-c3cc(Cl)cc(N4CCN(C)CC4)c3)c(C)n2)cn1` is 67

----------
Reported percent inhibition of cell viability at 20 µM values for the following molecules.
# System: A2780 cells
# assay: Cell Viability Assay (ATPlite 1step), A2780
# Assay type: cell-based
# conditionParameters: Homo sapiens; A2780, 20 uM compound, 72 hours; read-out: Cell Viability % inhibition A2780 (20 uM Cpd)
# Method: Cell Viability Assay Protocol Cells were trypsinized, counted, and re-seeded into a 384-well tissue culture plate at 1000 cells per well in […] media. Cells were incubated at 37° C. in an atmosphere of 5% CO2 for 24 hours. Experimental compounds, initially dissolved in DMSO and diluted further in media were added to the wells and incubated for 72 hours. Cell viability was measured using the ATPlite 1step Luminescence Detection Assay system (Perkin Elmer) as described in the Assay kit instructions. […]
Kindly provide the numeric value in % only, without the unit symbol.

Use the examples below as a reference point.
Documented percent inhibition of cell viability at 20 µM of `Cc1ncc(C(=O)Nc2ccc(-c3cccc(S(=O)(=O)C4CC4)c3)cn2)cn1` : 88

Documented percent inhibition of cell viability at 20 µM of `O=C(Nc1ccc(-c2ccoc2)cn1)c1cncnc1` : 91.8

Documented percent inhibition of cell viability at 20 µM of `Cc1ncc(C(=O)Nc2ccc(-c3cc(C4CC4)cc(N4CCN(C)CC4)c3)cn2)cn1` : 74.8

Documented percent inhibition of cell viability at 20 µM of `Cc1ncc(C(=O)Nc2ncc(-c3ccsc3)cc2F)cn1` : 90.1

Documented percent inhibition of cell viability at 20 µM of `O=C(Nc1ccc(-c2ccccc2)cn1)c1cncnc1` : 93.6

New cases:
Documented percent inhibition of cell viability at 20 µM of `Cc1ncc(C(=O)Nc2ccc(-c3cccc(N4CCN(C)CC4)c3)cn2)cn1` : 75.9

----------
# Tested on: A2780 cells
# assay: Cell Viability Assay (ATPlite 1step), A2780
# Assay type: cell-based
# conditionParameters: Homo sapiens; A2780, 4 uM compound, 72 hours; read-out: Cell Viability % inhibition A2780 (4 uM Cpd)
percent inhibition of cell viability at 4 µM vs 70%: less than gives MET; not less than gives NOT MET.

Some solved entries appear below for comparison.
Say whether its percent inhibition of cell viability at 4 µM is strictly beneath 70%. Entry: `Cc1ncc(C(=O)Nc2ccc(-c3cc(NC4CC4)cc(N4CCN(C)CC4)c3)c(C)n2)cn1`
MET

Say whether its percent inhibition of cell viability at 4 µM is strictly beneath 70%. Entry: `O=C(Nc1ccc(-c2ccncc2)cn1)c1cncnc1`
MET

New cases:
Say whether its percent inhibition of cell viability at 4 µM is strictly beneath 70%. Entry: `O=C(Nc1ccc(-c2cccc(Cl)c2)cn1)c1cncnc1`
NOT MET

Say whether its percent inhibition of cell viability at 4 µM is strictly beneath 70%. Entry: `COc1cccc(-c2ccc(NC(=O)c3cncnc3)nc2)c1`
NOT MET

Say whether its percent inhibition of cell viability at 4 µM is strictly beneath 70%. Entry: `O=C(Nc1ccc(-c2cccc(C3CC3)c2)cn1)c1cccnc1`
NOT MET

----------
Reported percent inhibition of cell viability at 20 µM values for the following compounds.
# Tested on: A2780 cells
# assay: Cell Viability Assay (ATPlite 1step), A2780
# Assay type: cell-based
# conditionParameters: Homo sapiens; A2780, 20 uM compound, 72 hours; read-out: Cell Viability % inhibition A2780 (20 uM Cpd)
Kindly provide the numeric value in % only, without the unit symbol.

Documented percent inhibition of cell viability at 20 µM of `CN1CCN(c2cccc(-c3ccc(NC(=O)c4cccnc4)nc3)c2)CC1` : 55.5

New cases:
Documented percent inhibition of cell viability at 20 µM of `Nc1ncc(C(=O)Nc2ccc(-c3ccccc3)cn2)cn1` : 90.6

Documented percent inhibition of cell viability at 20 µM of `Cc1ncc(C(=O)Nc2ccc(-c3cccc(NC4CC4)c3)cn2)cn1` : 71.2

Documented percent inhibition of cell viability at 20 µM of `Cc1ncc(C(=O)Nc2ccc(-c3cc(Cl)cc(N4CCN(C)CC4)c3)cn2)cn1` : 95.5

Documented percent inhibition of cell viability at 20 µM of `O=C(Nc1ccc(-c2ccccn2)cn1)c1cncnc1` : 73.4

Documented percent inhibition of cell viability at 20 µM of `Cc1ccc(C(=O)Nc2ccc(-c3cccc(NC4CC4)c3)cn2)cn1` : 74.8

Documented percent inhibition of cell viability at 20 µM of `O=C(Nc1ccc(-c2cccc(C3COC3)c2)cn1)c1cncnc1` : 88.9

Documented percent inhibition of cell viability at 20 µM of `CNC(=O)c1cccc(-c2ccc(NC(=O)c3cncnc3)nc2)c1` : 91.7

Documented percent inhibition of cell viability at 20 µM of `CN1CCN(c2cccc(-c3ccc(NC(=O)c4cncnc4)nc3)c2)CC1` : 49.4

----------
Reported percent inhibition of cell viability at 4 µM values for the following molecules.
# System: A2780 cells
# assay: Cell Viability Assay (ATPlite 1step), A2780
# Format: cell-based
# conditionParameters: Homo sapiens; A2780, 4 uM compound, 72 hours; read-out: Cell Viability % inhibition A2780 (4 uM Cpd)
Kindly provide the numeric value in % only, without the unit symbol.

Documented percent inhibition of cell viability at 4 µM of O=C(Nc1ccc(-c2ccc(Cl)cc2)cn1)c1cncnc1 [Compound 2] : 19.5

Documented percent inhibition of cell viability at 4 µM of Cc1ccc(C(=O)Nc2ccc(-c3cccc(C4COC4)c3)cn2)cn1 [Compound 44] : 86.5

New cases:
Documented percent inhibition of cell viability at 4 µM of Cc1ncc(C(=O)Nc2ncc(-c3cccc(OC4CC4)c3)cc2F)cn1 [Compound 66] : 89

Documented percent inhibition of cell viability at 4 µM of O=C(Nc1ccc(-c2cccc(NC3CC3)c2)cn1)c1cncnc1 [Compound 30] : 77.4

Documented percent inhibition of cell viability at 4 µM of CN1CCN(c2cccc(-c3ccc(NC(=O)c4cccnc4)nc3)c2)CC1 [Compound 36] : 51.3

Documented percent inhibition of cell viability at 4 µM of Cc1ncc(C(=O)Nc2ncc(-c3cccc(NC4CC4)c3)cc2F)cn1 [Compound 68] : 87.1

Documented percent inhibition of cell viability at 4 µM of Cc1ncc(C(=O)Nc2ccc(-c3cccc(OC4CC4)c3)cn2)cn1 [Compound 27] : 77.3

Documented percent inhibition of cell viability at 4 µM of O=C(Nc1ncc(-c2ccccc2)cn1)c1cncnc1 [Compound 12] : 82.7

Documented percent inhibition of cell viability at 4 µM of Cc1ncc(C(=O)Nc2ccc(-c3cccc(N4CCN(C)CC4)c3)cn2)cn1 [Compound 35] : 54.6

----------
Reported percent inhibition of cell viability at 20 µM values for the following molecules.
# System: A2780 cells
# assay: Cell Viability Assay (ATPlite 1step), A2780
# Type: cell-based
# conditionParameters: Homo sapiens; A2780, 20 uM compound, 72 hours; read-out: Cell Viability % inhibition A2780 (20 uM Cpd)
State the value with its unit after it.

Use the examples below as a reference point.
Documented percent inhibition of cell viability at 20 µM of Cc1ccc(C(=O)Nc2ccc(-c3cccc(C4COC4)c3)cn2)cn1 [Compound 44] : 86.1%

Documented percent inhibition of cell viability at 20 µM of O=C(Nc1ccc(-c2cccc(C3CC3)c2)cn1)c1cnccc1F [Compound 39] : 58.7%

Documented percent inhibition of cell viability at 20 µM of O=C(Nc1ccc(-c2cccc(OC3CC3)c2)cn1)c1cccnc1 [Compound 28] : 74.2%

Now for another entry.
Documented percent inhibition of cell viability at 20 µM of Cc1ncc(C(=O)Nc2ccc(-c3ccsc3)cn2)cn1 [Compound 61] : 89.7%

----------
Reported percent inhibition of cell viability at 4 µM values for the following compounds.
# Test system: A2780 cells
# assay: Cell Viability Assay (ATPlite 1step), A2780
# Type: cell-based
# conditionParameters: Homo sapiens; A2780, 4 uM compound, 72 hours; read-out: Cell Viability % inhibition A2780 (4 uM Cpd)

Use the examples below as a reference point.
Documented percent inhibition of cell viability at 4 µM of `O=C(Nc1ccc(-c2ccccc2)cn1)c1cccnc1` : 92.7%

Documented percent inhibition of cell viability at 4 µM of `Cc1ncc(C(=O)Nc2ncc(-c3cccc(S(=O)(=O)C4CC4)c3)cc2F)cn1` : 86.3%

Documented percent inhibition of cell viability at 4 µM of `COc1ncc(C(=O)Nc2ccc(-c3cccc(OC4CC4)c3)cn2)cn1` : 88.3%

New cases:
Documented percent inhibition of cell viability at 4 µM of `O=C(Nc1ccc(-c2cccc(C3CC3)c2)cn1)c1cnccc1F` : 55.6%

Documented percent inhibition of cell viability at 4 µM of `Cc1ncc(C(=O)Nc2ccc(-c3cccc(C4COC4)c3)cn2)cn1` : 85%

Documented percent inhibition of cell viability at 4 µM of `Cc1ccc(C(=O)Nc2ccc(-c3cccc(N4CCN(C)CC4)c3)cn2)cn1` : 59.2%

Documented percent inhibition of cell viability at 4 µM of `Cc1ncc(C(=O)Nc2ccc(-c3cccc(OCCN4CCN(C)CC4)c3)cn2)cn1` : 51.7%

Documented percent inhibition of cell viability at 4 µM of `NCCNc1ncc(C(=O)Nc2ccc(-c3cccc(OC4CC4)c3)cn2)cn1` : 86.6%

Documented percent inhibition of cell viability at 4 µM of `O=C(Nc1ccc(-c2cccc(OC3CC3)c2)cn1)c1cccnc1` : 77%
